target.under.test: CDK1 (Homo sapiens, UniProt P06493)
Construct: with cyclin B1
Sequence (P06493 whole entry): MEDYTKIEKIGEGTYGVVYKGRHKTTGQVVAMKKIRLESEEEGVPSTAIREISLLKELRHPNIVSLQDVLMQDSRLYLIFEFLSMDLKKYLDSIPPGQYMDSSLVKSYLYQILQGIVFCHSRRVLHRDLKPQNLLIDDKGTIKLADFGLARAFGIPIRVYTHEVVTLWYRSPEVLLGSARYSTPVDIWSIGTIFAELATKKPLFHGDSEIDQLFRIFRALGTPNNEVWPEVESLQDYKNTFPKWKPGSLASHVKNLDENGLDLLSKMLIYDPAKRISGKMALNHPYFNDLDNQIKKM
Sequence (P14635 whole entry partner): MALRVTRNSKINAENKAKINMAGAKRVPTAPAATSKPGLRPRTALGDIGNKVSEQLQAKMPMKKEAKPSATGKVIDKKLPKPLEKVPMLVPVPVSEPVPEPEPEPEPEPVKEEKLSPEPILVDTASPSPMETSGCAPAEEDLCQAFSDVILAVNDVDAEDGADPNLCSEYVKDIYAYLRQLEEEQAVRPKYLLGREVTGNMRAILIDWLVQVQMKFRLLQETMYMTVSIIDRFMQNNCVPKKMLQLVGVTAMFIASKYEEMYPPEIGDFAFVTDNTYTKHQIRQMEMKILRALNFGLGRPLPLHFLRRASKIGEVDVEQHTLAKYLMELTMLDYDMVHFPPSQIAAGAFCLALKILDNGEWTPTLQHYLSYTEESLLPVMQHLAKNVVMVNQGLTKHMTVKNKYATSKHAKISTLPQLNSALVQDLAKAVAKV
method: in vitro CDK1/cyclin B1 kinase inhibition assay (kit)
Type: biochemical
condition.label: read-out: CDK1 (IC50 μM ± SD)

molecule: CN(C)c1ccc(/C=N/c2c(N)n(C)c(=O)[nH]c2=O)cc1 [compound 4]
IC50: 2.18 µM

---

method: in vitro
Set-up: MTT cytotoxicity assay, formazan absorbance, viability IC50
condition.label: african green monkey, vero cells; read-out: IC50 Vero
property: CC50

compound: O=c1[nH]cc(F)c(=O)[nH]1 [5-FU, 5-fluorouracil]
property: CC50
observed.value: 3.04 µM

---

target.under.test: tubulin (tubulin polymerase, colchicine binding site)
Construct: with alpha/beta-tubulin heterodimer
method: colchicine-tubulin competition-binding assay
condition.label: read-out: Tubulin polymerase (CBS) (IC50 μM ± SD)

chemical.string: CN(C)c1ccc(/C=N/c2c(N)n(C)c(=O)[nH]c2=O)cc1
target.under.test: tubulin (tubulin polymerase, colchicine binding site)
IC50 [µM]: 1.93

Just for reference, paper PMC10324454 is where these values come from.
